Tested on: MS2 coat protein
assay_details: apparent KD of MS2 coat protein, switch OFF state (with FMN for OFF switches, without FMN for ON switches); designed switch direction (-1 OFF switch, 1 ON switch): 1; higher = weaker reporter binding
conditions_used: FMN input: 0 or 200 uM; Eterna round: R93 (includes R88 designs)
Listed below: apparent KD of MS2 coat protein values for each entry.
All answers are understood in nM, so give the number only.

chain: AAAAAACAAAGAGAGGAUAUCCAAAAAAAAACAUGAGGAUCACCCAUGUAAAGAAAUUUAAAAUGGGAGAAGGCUCUUUGAAAAA [Same State 2.6b ( Helter Skelter 1)]
assay_endpoint: apparent KD of MS2 coat protein
data_value: 30.9
--
chain: AAGAAAGUUUACGAGGAUAUGUUCCGCAGUACAUGAGGAUCACCCAUGUGAACACGAAGGGCGACGCAGAAGGCGUGAGCAAUGA [Orononed]
assay_endpoint: apparent KD of MS2 coat protein
data_value: 89.2
--
chain: CUCAGGAAGAGAGAGGAUAUCCAAAGGAAAACAUGAGGAUCACCCAUGUAAAAGGUAGGAAAUUGGGAGAAGGCUCAAGAGAGAG [salish99-ss2-096]
assay_endpoint: apparent KD of MS2 coat protein
data_value: 40
--
chain: GUGGUACAUGAGGAUCACCCAUGUGUGGGAGCAUGAGGAUAUGUCAGUCCAUGAAAUACGAUAGAAGGCAUGGUGA [JR_SS001_Sub1712]
assay_endpoint: apparent KD of MS2 coat protein
data_value: 264
--
chain: AGAAAACAUGAGGAUCACCCAUGUGAUAACAUGGGAGGAUAUACGAGGACGAUAGUCAAGGUAGAAGGCCUAAAGA [Garnet 71]
assay_endpoint: apparent KD of MS2 coat protein
data_value: 32.1

Now examine the next entry.
Exam item: // lookup apparent KD of MS2 coat protein for AAUAUAUUAAGUGAGGAUAUCGAGAAAAAAACAUGAGGAUCACCCAUGUGGGAAACAUGGUAGGGUGAGAAGGUACUUAAUAUAU [Samwise Clockwise 22 - Jieux - Same State 2]
Marked response: 399

* * *

Tested on: MS2 coat protein
assay_details: apparent KD of MS2 coat protein; higher = weaker reporter binding
conditions_used: Eterna round: R107; input ligand: arginine 13.2 mM
assay_endpoint: apparent KD of MS2 coat protein (nM)
Give a bare numeral; the unit nM is implied.

chain: UUACAUGAGGAUCACCCAUGUUUACUAUGUCGAGGACCGGUACGGCCGCCACUCGUAUUUGAUGAUUUAGGUGCCACAAGUUAUU [JR_Nu_ExcTryptoA_Sub024]
unit_descriptor: nM
apparent KD of MS2 coat protein: 16.1
--
chain: GUCGGAGUCUGAAGGAGCGACAUGAGGAUCACCCAUGUCUCCCGUUAUGGGAGUUCCUUAGGUCAGGUAGGUCGCAGACUCCGAC [#1 Exclusion - Arginine B Attempt #25 (Inspired by Omei)]
unit_descriptor: nM
apparent KD of MS2 coat protein: 78.1
--
chain: GAAUUAUGACGUGAUACCAGUGGUCAAUACUGGGAACUUAACAUGAGGAUCACCCAUGUCCACCCUUGGCAGCACGCUGACAAUC [theeternabot_exclusion_MS2_Theo_B_14]
unit_descriptor: nM
apparent KD of MS2 coat protein: 43.5
--
chain: GCACAAGAUGGAAGGAGCGCUGGAAAAGGUCACAUGAGGAUCACCCAUGUUCUCCUAACCGAGCAGGUAGGUCGCCAUCUUGUGC [SSAB NP+V+V2 #1]
unit_descriptor: nM
apparent KD of MS2 coat protein: 24
--
chain: UGUAUGUGAUUUGAUACCAGACCAGCUGGUGGUACAUGAGGAUCACCCAUGUAGGUUUGGGUCCCUUGGCAGCAAAUCGCAUACU [SSTheo B #24]
unit_descriptor: nM
apparent KD of MS2 coat protein: 54.6

Exam item: Recorded apparent KD of MS2 coat protein of UUAGAUAUGACAGAUACCAGCGUGUUGUAGAACAUGAGGAUCACCCAUGUAGUGAUCAAGCGCCCUUGGCAGCUGGUAUGUUUGG [7.X] , please.
Marked response: 61.5

Numbers sourced from the supplement of paper PMC9170038.
